- Tested on: Escherichia coli
- assayExplanation: Inhibition of Escherichia coli recombinant His6-tagged DXR expressed in Escherichia coli XL-1 blue using DXP as substrate at 1000 uM incubated for 2 mins prior to substrate addition measured after 5 mins by spectrophotometric analysis
Calls of active or inactive are those of the source. No cut-off for these calls is given here.
endpoint: inhibition

CN(CCCP(=O)([O-])O)C(=S)[S-].[Na+].[Na+]    inactive
CSC(=S)N(C)CCCP(=O)(O)O    inactive
CN(CCP(=O)([O-])O)C(=S)[S-].[Na+].[Na+]    inactive
O=P(O)(O)CCCc1cccc(O)c1O    inactive

Hello, the source for this data is ChEMBL document CHEMBL2157892, in case you need it.
